Measured IC50, listed per entry for reference.
- Tested on: A549
- Assay Details: cells
- Format: functional, cell-based
- Run Conditions: Homo sapiens, A549, 72 h
Give the number; µM is assumed, so skip it.

The value of IC50 measured for the molecule CCOC(=O)COc1cc(NS(=O)(=O)c2ccc(C)cc2)c2[nH]c3ccccc3c2c1 turned out to be 70.7

The value of IC50 measured for the molecule Cc1ccc(S(=O)(=O)Nc2cc(SCC(=O)O)c(O)c3ccccc23)cc1 turned out to be 21.6

The value of IC50 measured for the molecule Cc1ccc(S(=O)(=O)Nc2cc(SCC(=O)O)c(O)c3c2[nH]c2ccccc23)cc1 turned out to be 12.8

The value of IC50 measured for the molecule N#CC(=C(/N)Sc1ccccc1N)/C(C#N)=C(\N)Sc1ccccc1N turned out to be 32.2

---

- Species: Homo sapiens
- Run Conditions: at 20 µM
- Description: Inhibition of GST-tagged MEK1/ERK2 (unknown origin) cascading pathway assessed as reduction in ERK2 phosphorylation at 20 uM incubated for 2 hrs by HTRF assay relative to control
Measured inhibition, listed per entry for reference.
Give the number; % is assumed, so skip it.

The value of inhibition measured for the compound Cc1ccc(S(=O)(=O)Nc2cc(OCc3nc(C)no3)cc3c2[nH]c2ccccc23)cc1 turned out to be 37.8

The value of inhibition measured for the compound CC(=O)Nc1ccc(S(=O)(=O)Nc2cc(SCC(=O)O)cc3c2[nH]c2ccccc23)cc1 turned out to be 27.7

---

- Organism: Homo sapiens
- Run Conditions: at 20 µM
Mark Fulfilled for reported inhibition of 20% or greater; mark Not fulfilled for anything smaller.

Qu. Answer whether inhibition of Cc1ccc(S(=O)(=O)Nc2cc(SCC(=O)O)c(O)c3c2[nH]c2ccccc23)cc1 is greater than or equal to 20%.
Ans. Fulfilled

Qu. Answer whether inhibition of CCOC(=O)COc1cc(NS(=O)(=O)c2ccc(NC(C)=O)cc2)c2[nH]c3ccccc3c2c1 is greater than or equal to 20%.
Ans. Not fulfilled

---

Measured inhibition, listed per entry for reference.
- Species: Homo sapiens
- Run Conditions: at 20 µM

Use these answered entries as a reference point.
The value of inhibition measured for the molecule Cc1ccc(S(=O)(=O)Nc2cc(OCc3nnn[nH]3)cc3c2[nH]c2ccccc23)cc1 turned out to be 45.1%

The value of inhibition measured for the molecule CCOC(=O)CSc1cc(NS(=O)(=O)c2ccc(C)cc2)c2[nH]c3ccccc3c2c1 turned out to be 39.2%

The value of inhibition measured for the molecule Cc1ccc(S(=O)(=O)Nc2cc(OCC(N)=O)cc3c2[nH]c2ccccc23)cc1 turned out to be 27.9%

The value of inhibition measured for the molecule Cc1ccc(S(=O)(=O)Nc2cc(SCC(=O)O)cc3c2[nH]c2ccccc23)cc1 turned out to be 21.4%

Query molecule follows.
The value of inhibition measured for the molecule Cc1ccc(S(=O)(=O)Nc2cc(OCC(=O)O)cc3c2[nH]c2ccccc23)cc1 turned out to be 21.5%

---

- Test system: Sf21
- Run Conditions: Homo sapiens, at 20 µM
- Description: Inhibition of recombinant N-terminal GST-tagged human BRAF (433-726 residues) expressed in baculovirus infected sf21 insect cells/recombinant human full length N-terminal GST-tagged MEK1 expressed in Escherichia coli cascading pathway assessed as reduction in MEK1 phosphorylation at 20 uM incubated for 2 hrs by HTRF assay relative to control
Measured inhibition, listed per entry for reference.
Quote the value and follow it with the unit of measurement.

The value of inhibition measured for the molecule N#CC(=C(/N)Sc1ccccc1N)/C(C#N)=C(\N)Sc1ccccc1N turned out to be 87.4%

The value of inhibition measured for the molecule Cc1ccc(S(=O)(=O)Nc2cc(SCC(=O)O)c(O)c3ccccc23)cc1 turned out to be 56.1%

The value of inhibition measured for the molecule Cc1ccc(S(=O)(=O)Nc2cc(OCC(N)=O)cc3c2[nH]c2ccccc23)cc1 turned out to be 41.9%

Next:
The value of inhibition measured for the molecule CCOC(=O)CSc1cc(NS(=O)(=O)c2ccc(NC(C)=O)cc2)c2[nH]c3ccccc3c2c1 turned out to be 35.8%

The value of inhibition measured for the molecule Cc1ccc(S(=O)(=O)Nc2cc(OCc3nnc(N)o3)cc3c2[nH]c2ccccc23)cc1 turned out to be 33%

The value of inhibition measured for the molecule Cc1ccc(S(=O)(=O)Nc2cc(OCc3nnn[nH]3)cc3c2[nH]c2ccccc23)cc1 turned out to be 46.8%

The value of inhibition measured for the molecule COc1cc(/C=C2\C(=O)NN(c3ccc(I)cc3)C2=O)ccc1OC(C)=O turned out to be 57%
